Assay system: soluble HLA-A2.01 molecules
Assay protocol: competition with 125I-F10V for HLA-A2.01, ratio peptide/125I-F10V 25/1
Measured quantity: percentage inhibition of the binding of 125I-F10V, ratio 25/1
I'd appreciate it if you included the unit after the number.

INPUT: Sample YIAEAILGM (modifications not checked) [Y9M-5A] — what was its percentage inhibition of the binding of 125I-F10V, ratio 25/1?
OUTPUT: 87%

INPUT: Query: percentage inhibition of the binding of 125I-F10V, ratio 25/1; subject: RIAECILGM (modifications not checked) [wildtype R9M peptide]
OUTPUT: 69%

INPUT: Given YIAESILGM (modifications not checked) [Y9M-5S] , state its recorded percentage inhibition of the binding of 125I-F10V, ratio 25/1.
OUTPUT: 37%

INPUT: Return reported percentage inhibition of the binding of 125I-F10V, ratio 25/1; argument: AMPIGRIAE (modifications not checked) [A9E]
OUTPUT: 57%
